System: Plasmodium berghei
Test: Screen against P. berghei liver stage (PbLuc), transformed with Luciferase, at 10uM
Format: functional, HepG2
Conditions: tested at 10 uM
Hit rate of the full screen: of about 69,000 compounds, about 8,600 (12%) showed an effect of 50% or more. The list comes from a sample in which strong results are over-represented; it also holds close analogues and randomly drawn compounds.
# if value of INHIBITION reaches 40%, tag Fulfilled; if it stays below, tag Not fulfilled

// known answers, use as guide
compound	class_label
CC(C)CCn1c(=O)[nH]c2cn(-c3ccc(F)cc3)c(=O)n21	Not fulfilled
Cc1csc(C2CCCCN2C(=O)c2cc(C(C)C)[nH]n2)n1 (stereo unspecified)	Fulfilled
CN(C)C(=O)[C@H]1C[C@H]2CN(c3ncccn3)C[C@@H]1O2	Not fulfilled
Cc1cnn(C2CCCN(C(=O)CCc3cscn3)C2)c1 (stereo unspecified)	Not fulfilled
Cc1ccccc1CN1C[C@@H]2COC[C@]2(CNC(=O)C2CCC2)C1	Fulfilled

Query block: Say whether CNC(=O)NC(=O)C(C)N1CCCc2cc(OC)ccc2C1 (stereo unspecified) shows INHIBITION of 40% or more.
Result block: Not fulfilled

Query block: Say whether Cc1nnc(CN2CCOC(c3ccc(Cl)c(Cl)c3)C2)o1 (stereo unspecified) shows INHIBITION of 40% or more.
Result block: Not fulfilled

====

Test system: Plasmodium berghei
Assay: Screen against P. berghei liver stage (PbLuc), transformed with Luciferase, at 10uM
Assay type: functional, HepG2
Conditions: tested at 10 uM
The whole screen tested about 69,000 compounds, of which about 8,600 (12%) showed an effect of 50% or more. The full list was thinned out, with strong results kept by preference.
experimental_endpoint: INHIBITION (%)
Give bare numbers, in %.

Example cases with answers are listed next.
molecule	measured_target	experimental_endpoint	endpoint_result
O=S(=O)(c1ccccc1)N1CCC2(CCCN2Cc2ccccc2Cl)C1 (stereo unspecified)	Plasmodium berghei	INHIBITION	60.2
COCCC(=O)N1CCC2(CCCN2Cc2ccccc2)C1 (stereo unspecified)	Plasmodium berghei	INHIBITION	-22.5
CC(C)c1ccc(S(=O)(=O)N2CCCC3(CCCN3S(C)(=O)=O)C2)cc1 (stereo unspecified)	Plasmodium berghei	INHIBITION	-3.33
CSCCC(=O)N1CCCC(c2ncc[nH]2)C1 (stereo unspecified)	Plasmodium berghei	INHIBITION	-8.66
CCOCCC(=O)N1CCCC(c2ncc[nH]2)C1 (stereo unspecified)	Plasmodium berghei	INHIBITION	48.1

Give measured INHIBITION for every item shown.
1. Cc1ccc(CN2CCCC23CCN(S(=O)(=O)c2ccccc2)C3)o1 (stereo unspecified)
2. O=C(CCOc1ccccc1)N1CCCC(c2ncc[nH]2)C1 (stereo unspecified)
3. CCOCCC1(C(=O)N2CCCC(c3ncc[nH]3)C2)CCCC1 (stereo unspecified)

Result block:
34.7
52.7
72

Give measured INHIBITION for every item shown.
1. CN1CCN(Cc2cnc3n2CCN(Cc2cccs2)C3)CC1
2. CCc1ccc(S(=O)(=O)N2CCCC3(CCCN3S(C)(=O)=O)C2)cc1 (stereo unspecified)
3. O=S(=O)(c1ccccc1)N1CCC2(CCCN2Cc2cccc(F)c2)C1 (stereo unspecified)

Result block:
[30.7, -12.2, 78.8]

Value source: ChEMBL document CHEMBL4513216
